Biological target: GR (Homo sapiens, UniProt P04150)
Sequence (P04150 1-777): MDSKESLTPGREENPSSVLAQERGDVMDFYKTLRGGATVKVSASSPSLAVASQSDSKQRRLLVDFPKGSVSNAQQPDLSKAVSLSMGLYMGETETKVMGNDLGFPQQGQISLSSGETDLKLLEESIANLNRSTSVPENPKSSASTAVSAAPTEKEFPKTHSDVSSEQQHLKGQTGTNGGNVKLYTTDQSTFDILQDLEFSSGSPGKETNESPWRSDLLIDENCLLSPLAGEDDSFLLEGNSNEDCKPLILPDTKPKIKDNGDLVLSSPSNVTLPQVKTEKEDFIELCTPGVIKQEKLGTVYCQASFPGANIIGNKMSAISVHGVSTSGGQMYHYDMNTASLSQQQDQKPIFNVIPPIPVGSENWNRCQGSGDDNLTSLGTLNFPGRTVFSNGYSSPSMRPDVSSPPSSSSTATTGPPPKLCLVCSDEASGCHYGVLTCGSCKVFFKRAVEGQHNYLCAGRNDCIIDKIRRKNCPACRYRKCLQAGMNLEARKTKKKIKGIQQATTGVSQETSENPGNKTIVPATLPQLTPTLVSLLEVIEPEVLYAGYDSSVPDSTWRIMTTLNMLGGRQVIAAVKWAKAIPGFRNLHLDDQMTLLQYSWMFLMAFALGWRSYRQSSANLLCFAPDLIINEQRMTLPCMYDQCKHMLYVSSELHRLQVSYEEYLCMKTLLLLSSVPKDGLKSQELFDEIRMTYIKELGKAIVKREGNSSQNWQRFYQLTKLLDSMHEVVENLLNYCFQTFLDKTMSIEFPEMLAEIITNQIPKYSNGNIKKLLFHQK
Assay: Trans-Activation Modulation of Glucocorticoid Receptor Assay (GRAMMER), MMTV-LUC reporter, A549 cells
Type: cell-based
Set-up: endogenous in cells
Details: Table 4, literature compounds; read-out: GRAMMER IP
# EC50 per record follows
measured_metric: EC50 (nM)

* C[C@]12Cc3cnn(-c4ccc(F)cc4)c3C=C1CCC[C@@H]2[C@@H](O)Cc1ccccc1 [Ex. 22 WO 03/086294 A2, reference compound] | 122
* CO[C@@]1(CCc2ccccc2Cl)CCC2=Cc3c(cnn3-c3ccc(F)cc3)C[C@@]21C [Ex. 103 WO 04/075840 A2, reference compound] | 162
* C[C@]12Cc3cnn(-c4ccc(F)cc4)c3C=C1CC[C@@]2(O)C#Cc1ccccc1 [Ex. 1 WO 04/075840 A2, reference compound] | 385
* C[C@]12Cc3cnn(-c4ccc(F)cc4)c3C=C1CCC[C@@H]2[C@@H](O)c1ccccc1 [Ex. 35 WO 03/86294 A2, reference compound] | 195

* * *

molecular target: GR (Homo sapiens, UniProt P04150); assay: Transrepression Assay (GITAR), TNFα-β-lactamase reporter, U937 cells; assay type: cell-based; design: U937 cells contain an endogenous glucocorticoid receptor (GR); endogenous in cells; host or cells: U937 cells stably transfected with the TNF-alpha promoter beta-lactamase reporter; conditions: Table 4, literature compounds; read-out: GITAR IP
pEC50: −log10 of the molar value.
Attribute: pEC50
measured_metric: pEC50

• C[C@]12Cc3cnn(-c4ccc(F)cc4)c3C=C1CC[C@@]2(O)C#Cc1ccccc1 [Ex. 1 WO 04/075840 A2, reference compound] = 5.78
• C[C@]12Cc3cnn(-c4ccc(F)cc4)c3C=C1CCC[C@@H]2[C@@H](O)c1ccccc1 [Ex. 35 WO 03/86294 A2, reference compound] = 6.70
• C[C@]12Cc3cnn(-c4ccc(F)cc4)c3C=C1CCC[C@@H]2[C@@H](O)Cc1ccccc1 [Ex. 22 WO 03/086294 A2, reference compound] = 6.62
• CO[C@@]1(CCc2ccccc2Cl)CCC2=Cc3c(cnn3-c3ccc(F)cc3)C[C@@]21C [Ex. 103 WO 04/075840 A2, reference compound] = 6.72
• C[C@]12Cc3cnn(-c4ccc(F)cc4)c3C=C1CCC[C@@H]2[C@@H](O)CCc1ccccc1 [Ex. 30 WO 03/086294 A2, reference compound] = 6.78

meta.source: patent US20120214846A1
